# procedure_summary: Toxicity in ip dosed mouse assessed as motor impairment by rotarod test
# Assay type: organism-based
# protocol_conditions: in vivo
The threshold is 70 mg/kg. Values of TD50 beneath it are tagged Y; values meeting or exceeding it are tagged N.

Examples with answers:
molecule: Cc1ccc(OCCCN2CCCC(O)C2)c(C)c1 (racemic)
category_label: N
--
molecule: Cc1ccc(OCCCCN[C@H](C)CO)c(C)c1
category_label: N
--
molecule: CC[C@@H](CO)NCCOCCOc1ccc(C)cc1C.Cl
category_label: N
--
molecule: Cc1cc(C)c(C)c(OCCCN2CCC(O)CC2)c1
category_label: Y
--
molecule: Cc1cc(C)c(C)c(OCCN[C@@H]2CCCC[C@H]2O)c1 (racemic)
category_label: N
--
molecule: Cc1cc(C)c(C)c(OCCOCCN[C@H]2CCCC[C@@H]2O)c1.Cl (racemic)
category_label: Y
--
molecule: Cc1cc(C)c(OCCCN[C@@H]2CCCC[C@H]2O)c(C)c1 (relative stereo)
category_label: Y
--
molecule: Cc1cccc(C)c1OCCOCCNC1CCC(O)CC1.Cl (stereo not given)
category_label: N

Would you kindly look at the next entry?
In the record for Cc1ccc(OCCOCCN[C@H](C)CO)c(C)c1 , is TD50 less than 70 mg/kg?
N
